Task for the reader: assign each of the following molecules its reported Content %.
Test: Stability test in a 60° C. drying oven (impurity, content, XRPD)
Format: physicochemical
Details: 60° C. drying oven, 0 day
Experimental: The crystal form A of the fumarate of the compound of formula (I) prepared in Example 9 and the crystal form 1 of the maleate of the compound of formula (I) prepared in Example 2 were placed in a 60° C. drying oven for different days (0 days, 7 days, 21 days). Samples were collected and detected to investigate the stability of the crystal forms. The amorphous form of the free base of the compound of formula (I) was subjected to the same stability study as above-mentioned. […]
Structures can show the parent of a compound that is named as a salt.
Give bare numbers, in %.

COC[C@@H](C)N[C@H]1CC[C@H](Nc2cc(-c3csc(NCC4(C#N)CCOCC4)n3)c(Cl)cn2)CC1 [free base of the compound of formula (I)] : 99.50
COC[C@@H](C)N[C@H]1CC[C@H](Nc2cc(-c3csc(NCC4(C#N)CCOCC4)n3)c(Cl)cn2)CC1 [crystal form 2] : 99.13
COC[C@@H](C)N[C@H]1CC[C@H](Nc2cc(-c3csc(NCC4(C#N)CCOCC4)n3)c(Cl)cn2)CC1 [crystal form 1 of the maleate of the compound of formula (I)] : 99.91

Now examine the next entry.
Reported Content % for COC[C@@H](C)N[C@H]1CC[C@H](Nc2cc(-c3csc(NCC4(C#N)CCOCC4)n3)c(Cl)cn2)CC1 [crystal form A of the fumarate of the compound of formula (I] : what is it?
99.38

---

Experiment: Solubility test in PBS buffers of different pH, water and normal saline at room temperature
Type: physicochemical
Conditions: PBS buffers of different pH, water and normal saline, aqueous buffer, thermodynamic from solid, PBS 6.0-7.5, water, normal saline; read-out: solubility in each of the above-mentioned solvents (summary)
Description: Weigh about 50 mg of the crystal form 1 of the maleate of the compound of formula (I) prepared in Example 2, which was added into different bottles. Then PBS buffers with different pH values were prepared. Each of them was added in batches with a small amount into each of the above bottles at room temperature till the crystal form in each bottle was just dissolved. The total amount of the solvent was recorded and the solubility was calculated. […]
Experimental Readout: solubility

Reported solubility for COC[C@@H](C)N[C@H]1CC[C@H](Nc2cc(-c3csc(NCC4(C#N)CCOCC4)n3)c(Cl)cn2)CC1 : what is it?
30 to 60 mg/mL

---

assay: Stability test in a 60° C. drying oven (impurity, content, XRPD); format: physicochemical; settings: 60° C. drying oven, 0 day
Where a name gives a salt, the structure may show the parent alone.
Experimental Readout: Total impurity % (%)
Answers are plain numbers, in %.

Below: 3 compounds and their reported Total impurity %.
COC[C@@H](C)N[C@H]1CC[C@H](Nc2cc(-c3csc(NCC4(C#N)CCOCC4)n3)c(Cl)cn2)CC1 [crystal form 1 of the maleate of the compound of formula (I)] : 0.09
COC[C@@H](C)N[C@H]1CC[C@H](Nc2cc(-c3csc(NCC4(C#N)CCOCC4)n3)c(Cl)cn2)CC1 [crystal form A of the fumarate of the compound of formula (I] : 0.62
COC[C@@H](C)N[C@H]1CC[C@H](Nc2cc(-c3csc(NCC4(C#N)CCOCC4)n3)c(Cl)cn2)CC1 [free base of the compound of formula (I)] : 0.50

Reported Total impurity % for COC[C@@H](C)N[C@H]1CC[C@H](Nc2cc(-c3csc(NCC4(C#N)CCOCC4)n3)c(Cl)cn2)CC1 [crystal form 2] : what is it?
0.87

---

assay: Solubility test in PBS buffers of different pH, water and normal saline at room temperature; format: physicochemical; details: PBS buffer, pH 7.2, aqueous buffer, thermodynamic from solid, PBS pH 7.2, room temperature; read-out: Solubility (S, mg/mL)
Experimental Readout: solubility

Reported solubility for COC[C@@H](C)N[C@H]1CC[C@H](Nc2cc(-c3csc(NCC4(C#N)CCOCC4)n3)c(Cl)cn2)CC1 [free base of the compound of formula (I)] : what is it?
~10.1 mg/mL
